test: protease stability score; higher = more stable; yeast display proteolysis, trypsin and chymotrypsin;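 note: relative to predicted unfolded state with 0 unfolded-like and 1 meaning tenfold more protease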
The entries below are paired with their reported protease stability score.
The reply should be a number, written without any unit.

These solved cases illustrate the format of a correct answer.
DEEHEHLKELARLILKWWYTGDEQHMLELADPNVRSHVNGVHLVGREEMMKVWVEVLEFLGADHVEDKRSSIQGDKTILHTSHHVNGKEIEVDVDIRIVDGKDHTLEFRIK :: 1.44
SEDEEHARKLVEELLHIMITGDFHRIRELADPHARIVVGDKVFHGREMMFRFSRELRVHDHRLRHEEYINGVVHIEGHVDGEINGRRHRTEVRIHIVVIDGRVKTMEIRWD :: 1.35
SEDEELVELMMKLIMELRKTGDEESIRRLADPNVRLDFNGRDNHGREHATKWIRDIVEHLRLRRFEIHNVEFQGNKAVVRSRIIMDWDGQDFHLDVIIILNKFNGRWFIHSQIVH :: 1.49
DEDDELSHRAVLLYMEAVLTGNEDFMSRLVDPDVRHIVGDKEYIGREQFVEWFNEFVEKVKNVTVRLRHHDIQGDKVVVHTEYRVNGRTWHEHVIILKINGKWRLKELRIHIE :: 0.723
HDEEREVHEWIKLIEHHLRTGDEDAVRKLVDPTVRNDINGVDVVGRREDVERLHQADHIDIELKHVEIQGDKLHIDGVLILDFNGRHFYFRMKIIASKYNGVWKIKEKRVH :: 0.999
DEEERIAKVMLKIVEKDLHTGNFETLFHLMDPHMRLEYGDKHHHGREEAYRELLEIWEELGANHYHITHRHVRLIGDKIRIHIYSIVRFNGREHHLHIDLIVTKIDGRWVMHRIIIELK :: 0.723
DESEEEMKKAFKDLVDSLLTGDEHLLRTFADPNMRLRIGDKTFHGRETYSEIFLKEWKKLGIKHYQVTIHHLEVQGDKIHVDTRVNVHIGDWTIHRETRLHITKVNGQWILRQEDVD :: 0.416
DETERDVREAVRIWNEDVETGNEESLLRLIDPHVRLVINGQTFHGMESMLEVLNEFLKHIRVEHIEVKRIEIQGDKAIIDTNMDIEIDGKRKQKKTTLIIRKFNGRWHLSLVEIR :: 1.86
SEDEEISERALRHVYKHLKTGDEDNFQKNFDPHVRFEAENVEFHGREASEHLSKRIDVIHRIIIRHHTIYNGVIVIHGEVDGEFNGKRDRDIVTIYYVKVNGQWQIRELKIG :: 0.891
SEHEKIIVEWTRLLQEILRTGDEEMWLKLLDPHAKTHINGKDIHGMEEAARFWKELHKHMRIEDEEVRETRVVGNKAIYHMERKVNINGRTHEQEVELRVIIVDGQIKKISIHIH :: 0.439

Please examine the following record next.
q: What does the data say about its protease stability score? Entry: SEDHRDAEKFLRLFMELFKTGDFEELFRLVDPNVRLEINGREFHGRELVKKLLKEEHDRYKNATSEVEIDRIHIQGDWVHADIELRLDYNGKTLRWETHLVMLKVDGRWFVRSYSER
a: 2.6

----------
Reported protease stability score by item:
test: protease stability score; higher = more stable; yeast display proteolysis, trypsin and chymotrypsin;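 note: relative to predicted unfolded state with 0 unfolded-like and 1 meaning tenfold more protease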
Enter a number only.

HEEEHHMRELFKRFWHLFETGDWDKLAKNADPNVRSDINGVDRHGREEVIHELKRIWDELGIDHLELKEVHIQGNKVHSDGKLVYNGVSRKTHIELIVYNGVLKRMSIEIH :: 1.38
DERHKMIKDFAHLMLRARKTGDWDVMTRLFDPNTRVTQGDFELHGMESFSDWLHELHRQVPNVVEHDHSVDAFDGRVHLKTEERINGRILRIRIIIIVVDGKIKELRIEVD :: 1.37
TSHEHELRRVAEEIIHAYLTGDWWRWERLFDPHVRVETQVGDKRIERHGREDLIRFLNEMRVHRIEIKTRELYDGRVHIHSRMDYEVDGQRDDVDLHLHFHIVDGKVEEVVITIK :: 1.47

q: Item DEDEEIAVKSYKKIVEDFFTGDEDSARRNADPDVLLRVGDKELHGWKHMTSWVHELRIHRIDIREIRVIGDKMFLHGEVDSEIDGKRLEFHLKLRMEKVDGRWIIRKIEIK has what recorded protease stability score?
a: 1.49

q: Another sequence to check: DEEEELARRASRKLIELMLTGDEDSLEEMLDPNVKVQIGDKELHGRIAIEIMSRQFKNVRIEVKRLSVQGNYVDLDVRVNINGVWVEQRIQIEKVDGRWTLKENTIV
a: 2.23

q: Follow-up item: SEEEKEAEDILRMVIHVLRTGDWHTLKNMLDPHAKNDVNGREQVGMRDWIETFTRIHRELGISNIDFKLHDIRITEHHVLVDGILIFNGKEYRLNLIITKINGRWVNEHIHLH
a: 1.08

q: Same for DEHQKEIKEVVEMMRHAILTGDEETLERQMDPHAKIRINGVDYVGRRYLEILIRRVDHRRIHTRIRHVEIVDGRVITHLEERTVLHVGDKDIHVSHELEFVLLKIDGRWLVTEMIIQ
a: 1.23

q: Similarly, SEDEEVAERFLRLLIESLMTGDEDSFKSLLDPNDRLHIGEKHNHGRNLIVELLTRFGIELEHIELKSVEVINGRIHVNTHIRFIQGDKHIETEMRLNVDKIDGRWRLRSMHID ?
a: 1.98

q: // query: SEEKEKAEHVVRQFLRVILTGDWERIEELMDPHVRFRVDVDGQTLHNHGRERLIDWYAKVKGLRNNLREIHIFENRAELHFESTIGDKHFKERIEIHIVDGRFKSVTFQFE
a: 1.42

q: Another sequence: SHHEDDSEISIELTHNLIETGDFELLTELFDPNARMDYNGVTVHGRERVSEFLSRFAHHIRIKRRILRHMDLFDGQIHLHEEYHYDWDGQDIHTEVRFRSEKVNGRWVPKLLHRI
a: 0.969

q: Similarly, DEFNEATRRALHEEMKTRHTGDEDLFHRLADPDVRVIYGDKHIHGREEVVHWLREIRVKTHHLEIRRSHFQGEKAHVDGKLNGDFIFDGRTFTVQIHVEFIMIKWNGQWRIEMLRFE ?
a: 1.09
